experimental_details: Therapeutic index, ratio of HC10 for sheep RBC to geometric mean MIC for yeast
Format: toxicity
recorded_conditions: sheep red blood cells, read-out: TI
assay_metric: selectivity ratio

Requested field: selectivity ratio. Item: H-FWQLVPLAIKIYRAWKRR-NH2
0.1

Further cases:
Please look up its selectivity ratio: H-QLVPLAIKIYRAWKRR-NH2
15

Recorded selectivity ratio for H-KRFWQLVPLAIKIYRAWKRR-OH , please?
0.4

* * *

experimental_details: Hemolytic activity in sheep RBC assessed as reduction in hemoglobin at 64 uM incubated for 1 hr
Type: ADME, cell-based, Ovis aries, Erythrocyte
recorded_conditions: sheep red blood cells (erythrocytes), read-out: Activity
assay_metric: hemolysis at 1 h, 64 µM (%)
The response must be a number in % with no trailing unit.

I'd like to know its hemolysis at 1 h, 64 µM. The substance in question is H-FWQLVPLAIKIYRAWKRR-NH2
100

Next:
Requested read-out: hemolysis at 1 h, 64 µM. Entry: H-KRFWQLVPLAIKIYRAWKRR-OH
40

* * *

Test system: Salmonella typhimurium
experimental_details: Antibacterial activity against Salmonella typhimurium KCTC 1926 assessed as reduction in bacterial growth incubated for 24 hrs by CLSI based broth dilution method
Format: functional, Salmonella enterica subsp. enterica serovar Typhimurium
recorded_conditions: Salmonella enterica, read-out: MIC100
assay_metric: MIC (µM)
Your answer should be a plain number; it is taken to be in µM.

Examples from the recorded data:
For H-QLVPLAIKIYRAWKRR-NH2 , what is its reported MIC?
16

Form field: reported MIC of H-LAKKIYRKWKRW-NH2
2

Look at this substance and give its reported MIC. H-FWQLVPLAIKIYRAWKRR-NH2
8

***
What does the record list as MIC for H-KRFWQLVPLAIKIYRAWKRR-OH ?
4

Using the record for H-LAKKIYRAWKRR-NH2 , report its MIC.
4

What does the data say about its MIC? Entry: H-LAKKIYRAWKRW-NH2
2

What does the data say about its MIC? Entry: H-LAIKIYRAWKRR-NH2
8

Consider the substance H-LWKKIYRKWKRW-NH2 and give its measured MIC.
2

Which MIC reading was recorded for the substance H-LIKKIYRKWKRW-NH2 ?
2

Given H-VPLAIKIYRAWKRR-NH2 , state its recorded MIC.
8

* * *

System: Staphylococcus epidermidis
experimental_details: Antibacterial activity against Staphylococcus epidermidis KCTC 1917 assessed as reduction in bacterial growth incubated for 24 hrs by CLSI based broth dilution method
Format: functional
recorded_conditions: read-out: MIC100
assay_metric: MIC

Answered examples (6):
Please look up its MIC: H-LAKKIYRAWKRR-NH2
8 µM

# get_value(readout='MIC', item= H-LAKKIYRKWKRW-NH2 )
4 µM

Find the recorded MIC belonging to H-LIKKIYRKWKRW-NH2 and report it.
4 µM

So what does the record say about MIC for H-FWQLVPLAIKIYRAWKRR-NH2 ?
16 µM

MIC for H-LAIKIYRAWKRR-NH2 ?
4 µM

# input substance: H-LAKKIYRAWKRW-NH2 ; wanted: its MIC
8 µM

Continuing:
# get_value(readout='MIC', item= H-VPLAIKIYRAWKRR-NH2 )
16 µM

Look up MIC for this substance: H-QLVPLAIKIYRAWKRR-NH2
16 µM

Field request: MIC | item: H-LWKKIYRKWKRW-NH2
4 µM

What value of measured MIC is listed for H-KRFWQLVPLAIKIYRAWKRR-OH ?
8 µM

Data provenance is ChEMBL document CHEMBL4765389.
